Molecular target: T1, soluble cynomolgus (Macaca fascicularis) RON protein (cynomolgus (Macaca fascicularis), UniProt A0A2K5VT07 25-571)
T1 chain: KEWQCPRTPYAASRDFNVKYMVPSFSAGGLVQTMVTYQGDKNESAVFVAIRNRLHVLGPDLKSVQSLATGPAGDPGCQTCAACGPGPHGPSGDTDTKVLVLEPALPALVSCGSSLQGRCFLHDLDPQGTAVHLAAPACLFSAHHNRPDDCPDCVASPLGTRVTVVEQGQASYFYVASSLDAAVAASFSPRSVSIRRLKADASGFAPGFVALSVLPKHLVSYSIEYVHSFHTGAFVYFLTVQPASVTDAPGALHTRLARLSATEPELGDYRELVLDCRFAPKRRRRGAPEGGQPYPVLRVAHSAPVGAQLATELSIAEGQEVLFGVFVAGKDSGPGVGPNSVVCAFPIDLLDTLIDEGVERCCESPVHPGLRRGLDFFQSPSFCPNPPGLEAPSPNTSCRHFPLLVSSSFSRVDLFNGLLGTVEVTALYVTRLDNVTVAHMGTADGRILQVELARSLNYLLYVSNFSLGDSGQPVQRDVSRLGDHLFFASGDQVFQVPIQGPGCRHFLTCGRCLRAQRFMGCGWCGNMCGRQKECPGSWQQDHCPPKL
Test: ELISA; 4-P fit C
resultType: EC50 (ng/mL)

binder | resultType | unitLabel | numericValue
1P4A12 murine monoclonal anti-RON antibody (antibody, V domains shown) VH: EVQLQQSGPELVKPGASMKISCKASGYSFTGYTMNWVKQSHGKKLEWIGLINPYNGGTIYNQKFKGKATLTVDKSSSTAYMELLSLTSEDSAVYYCARWLRRGGYAMDYWGQGASVTVSS VL: DILLTQSPAILSVSPGERVSFSCRASQSIGTSIHWYQQRTNGSPRLLIKFASESISGIPSRFSGSGSGTDFTLSINSVESEDIADYYCQQSDSWPLTFGAGTKLEVK | EC50 | ng/mL | 5
1P5B10 murine monoclonal anti-RON antibody (antibody, V domains shown) VH: EVQLQQSGPELVKPGASMKISCRAAGFSFTGYTMNWVKQSHGKSLEWIGLINLNNGGTSHNQKFKGKATLTVDKSSSTAYMELLSLTSEDSAVYYCARWLRRGGYAMDYWGQGISVTVSS VL: DILLTQSPAILSVSPGERVSFSCRASQNIGTSIHWYQQRTNGSPRLLIKYASESISGIPSRFSGSGSGTDFTLSINSVESEDIADYYCQQSDSWPLTFGAGTKLELK | EC50 | ng/mL | 2
1P3B2 murine monoclonal anti-RON antibody (antibody, V domains shown) VH: EVQLQQSGPELEKPGASVKISCKASGYSFTGYNMNWVKQSNGESLEWIGDIDPYYGGTRYNQKFKGKATLTVDKSSSTAYMQLKSLTSEDSAVYYCAREGRGFAYWGQGTLVTVSA VL: DIQMTQSPASLSASVGETVTITCRASENIYSYLAWYQKKQGKSPQLLVYNAKTSVEGVPSRFSGSGSGIQFSLKINSLQPEDFGSYYCHCQHHYGTLPTFGGGTKLEIK | EC50 | ng/mL | 10
1P4A3 murine monoclonal anti-RON antibody (antibody, V domains shown) VH: EVQLQQSGPELEKPGASVMISCKASGYSFTGYNMNWVKQSTGKSLEWIGDIDPYYDGTRYNQKFKGKATLTADKSSSTAYMQLKSLTSEDSAVYYCTREGRGFAYWGQGTLVTVSA VL: DIQMTQSPASLSASVGETVTITCRASENIYSYLAWYQQKQGKSPQLLVYNAKTLAGGVPSRFSGSGSGTQFSLKINSLQPEDFGSYYCQHYYGTPLTFGAGTKLELK | EC50 | ng/mL | 3
